In this section we review reported pIC50 values for a set of compounds.
Molecular target: JAK1 (Homo sapiens (Human))
Sequence (P23458 whole entry): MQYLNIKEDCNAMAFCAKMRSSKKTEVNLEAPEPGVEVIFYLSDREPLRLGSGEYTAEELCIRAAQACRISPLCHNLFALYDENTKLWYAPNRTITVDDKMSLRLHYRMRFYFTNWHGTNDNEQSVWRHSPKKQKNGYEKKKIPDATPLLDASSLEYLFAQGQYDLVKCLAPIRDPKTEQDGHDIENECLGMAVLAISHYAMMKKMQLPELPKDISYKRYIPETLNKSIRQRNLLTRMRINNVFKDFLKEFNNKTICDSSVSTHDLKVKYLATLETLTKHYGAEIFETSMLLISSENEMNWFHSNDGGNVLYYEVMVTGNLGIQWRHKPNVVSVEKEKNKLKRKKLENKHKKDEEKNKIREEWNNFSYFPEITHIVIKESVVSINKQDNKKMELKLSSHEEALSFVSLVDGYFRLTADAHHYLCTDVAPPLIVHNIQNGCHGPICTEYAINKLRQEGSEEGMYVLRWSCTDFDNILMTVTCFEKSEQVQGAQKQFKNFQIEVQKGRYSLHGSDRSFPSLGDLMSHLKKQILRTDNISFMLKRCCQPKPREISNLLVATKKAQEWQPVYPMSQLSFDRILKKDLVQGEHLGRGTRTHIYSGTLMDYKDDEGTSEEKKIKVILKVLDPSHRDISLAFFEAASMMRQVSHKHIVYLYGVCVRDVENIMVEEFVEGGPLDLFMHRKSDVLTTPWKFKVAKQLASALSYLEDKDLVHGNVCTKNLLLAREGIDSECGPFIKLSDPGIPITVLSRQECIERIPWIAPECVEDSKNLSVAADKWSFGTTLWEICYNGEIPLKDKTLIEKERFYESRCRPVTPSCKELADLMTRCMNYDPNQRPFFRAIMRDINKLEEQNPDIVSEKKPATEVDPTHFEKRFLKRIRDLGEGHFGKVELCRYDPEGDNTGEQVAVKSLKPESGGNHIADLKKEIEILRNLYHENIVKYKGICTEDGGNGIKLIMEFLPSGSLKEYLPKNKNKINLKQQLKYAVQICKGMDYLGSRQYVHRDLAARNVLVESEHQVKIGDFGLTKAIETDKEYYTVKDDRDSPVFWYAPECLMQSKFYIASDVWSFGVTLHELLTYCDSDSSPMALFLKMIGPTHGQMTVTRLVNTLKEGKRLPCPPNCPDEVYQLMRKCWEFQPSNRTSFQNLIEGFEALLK
Test: Analysis of JAK1 activity inhibition ability (ADP-Glo Kinase Assay)
Assay type: biochemical
Settings: JAK1 enzyme, ADP-Glo luminescence, ATP 250 uM, IRS-itide substrate, 30° C. 40 minutes; read-out: IC50
pIC50: −log10 of the molar value.
VALUE_TYPE: pIC50

INSERT INTO measurements (compound, value_type, reported) VALUES
  ('C=CC(=O)N1CC=C(c2cc(NC(=O)C3CC3)nc3[nH]ccc23)CC1', 'pIC50', '6.70 to 7.70'),
  ('O=C(Nc1cc(-c2ccc(NS(=O)(=O)C3CC3)cc2C(F)(F)F)c2cc[nH]c2n1)C1CC1', 'pIC50', '6.70 to 7.70'),
  ('C[C@H]1CC(Nc2ccc(-c3cc(NC(=O)C4CC4)nc4[nH]ccc34)cc2)CCN1C(=O)NCC(F)(F)F (some centres unmarked)', 'pIC50', '< 6.70'),
  ('CC(C)(C)OC(=O)N1CC=C(c2cc(NC(=O)C3CC3)nc3[nH]ccc23)C1', 'pIC50', '< 6.70'),
  ('CN(C)CC(=O)N1CC=C(c2cc(NC(=O)C3CC3)nc3[nH]ccc23)CC1', 'pIC50', '< 6.70'),
  ('CC1CN(C(=O)c2ccnc3[nH]ccc23)CC=C1c1cc(NC(=O)C2CC2)nc2[nH]ccc12 (centres unmarked)', 'pIC50', '6.70 to 7.70'),
  ('O=C(Nc1cc(-c2ccc(NS(=O)(=O)CC3CCOCC3)cc2)c2cc[nH]c2n1)C1CC1', 'pIC50', '> 7.70'),
  ('N#Cc1ccc(S(=O)(=O)Nc2ccc(-c3cc(NC(=O)C4CC4)nc4[nH]ccc34)cc2)cn1', 'pIC50', '6.70 to 7.70');
